Target: Integrin alpha-IIb/beta-3 (Homo sapiens, UniProt P05106+P08514)
Sequence (P05106 27-788 limits assumed): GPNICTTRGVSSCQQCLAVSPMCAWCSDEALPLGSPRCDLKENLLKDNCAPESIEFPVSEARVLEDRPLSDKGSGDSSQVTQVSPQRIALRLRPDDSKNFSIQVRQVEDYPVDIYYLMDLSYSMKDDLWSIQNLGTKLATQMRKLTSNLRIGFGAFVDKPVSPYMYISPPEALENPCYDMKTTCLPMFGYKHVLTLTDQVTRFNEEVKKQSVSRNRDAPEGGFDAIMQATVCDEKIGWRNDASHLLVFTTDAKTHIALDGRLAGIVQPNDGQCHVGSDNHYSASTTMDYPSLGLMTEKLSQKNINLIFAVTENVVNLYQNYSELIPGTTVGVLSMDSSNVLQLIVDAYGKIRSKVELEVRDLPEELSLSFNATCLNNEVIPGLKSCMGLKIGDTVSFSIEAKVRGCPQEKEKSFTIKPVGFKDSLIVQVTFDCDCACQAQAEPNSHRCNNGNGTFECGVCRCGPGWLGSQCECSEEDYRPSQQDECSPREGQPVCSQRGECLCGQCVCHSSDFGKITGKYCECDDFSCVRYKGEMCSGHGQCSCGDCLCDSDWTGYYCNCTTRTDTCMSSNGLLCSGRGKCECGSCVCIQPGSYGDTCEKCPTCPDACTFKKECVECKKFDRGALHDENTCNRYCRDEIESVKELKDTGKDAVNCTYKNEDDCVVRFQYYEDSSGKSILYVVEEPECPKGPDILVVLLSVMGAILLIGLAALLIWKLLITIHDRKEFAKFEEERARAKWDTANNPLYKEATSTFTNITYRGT
Sequence (P08514 32-887 limits assumed): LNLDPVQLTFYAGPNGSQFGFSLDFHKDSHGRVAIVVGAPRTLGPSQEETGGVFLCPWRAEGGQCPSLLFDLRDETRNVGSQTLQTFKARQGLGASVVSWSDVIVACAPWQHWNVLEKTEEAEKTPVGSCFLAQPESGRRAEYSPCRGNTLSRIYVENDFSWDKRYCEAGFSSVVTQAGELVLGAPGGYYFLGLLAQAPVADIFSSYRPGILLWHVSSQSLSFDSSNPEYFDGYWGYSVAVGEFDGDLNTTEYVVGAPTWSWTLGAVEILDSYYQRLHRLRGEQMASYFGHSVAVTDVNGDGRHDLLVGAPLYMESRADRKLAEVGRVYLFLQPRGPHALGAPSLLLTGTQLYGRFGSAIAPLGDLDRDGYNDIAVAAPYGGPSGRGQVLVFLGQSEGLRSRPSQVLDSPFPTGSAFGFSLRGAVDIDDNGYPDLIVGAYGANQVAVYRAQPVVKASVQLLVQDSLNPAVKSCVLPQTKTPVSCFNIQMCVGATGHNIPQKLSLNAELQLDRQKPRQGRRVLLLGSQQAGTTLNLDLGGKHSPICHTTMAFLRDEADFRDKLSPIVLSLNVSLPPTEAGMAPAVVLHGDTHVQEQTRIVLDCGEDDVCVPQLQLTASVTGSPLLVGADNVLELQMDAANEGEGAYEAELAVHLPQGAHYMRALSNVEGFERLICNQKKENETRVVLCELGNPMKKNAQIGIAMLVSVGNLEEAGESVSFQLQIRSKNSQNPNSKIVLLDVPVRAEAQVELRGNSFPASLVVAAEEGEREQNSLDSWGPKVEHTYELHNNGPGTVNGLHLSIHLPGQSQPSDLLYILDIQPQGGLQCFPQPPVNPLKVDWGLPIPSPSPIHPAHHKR
Sequence (P08514 891-1039 limits assumed): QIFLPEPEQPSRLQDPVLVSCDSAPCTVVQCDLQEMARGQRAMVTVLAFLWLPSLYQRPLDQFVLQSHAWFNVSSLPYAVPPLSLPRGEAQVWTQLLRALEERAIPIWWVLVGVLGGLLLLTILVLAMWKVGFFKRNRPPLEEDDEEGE
Assay: In vitro binding affinity against human alpha IIb beta-3 integrin
endpoint: pKi
Answers are plain numbers, as −log10 of the molar value.

# example entries with known answers
* CN(CCC1CCNCC1)C(=O)c1ccc2c(c1)CC(CCC(=O)O)C(=O)N(CCc1ccccc1)C2 (stereo unspecified) | 6.19
* CN(CCC1CCNCC1)C(=O)c1ccc2c(c1)CC(CC(=O)O)C(=O)N(C)C2 (stereo unspecified) | 8.82
* CCCCN1Cc2ccc(C(=O)N(C)CCC3CCNCC3)cc2CC(CC(=O)O)C1=O (stereo unspecified) | 8.82
* CN(CCC1CCNCC1)C(=O)c1ccc2c(c1)CC(CC(=O)O)C(=O)N(CCCCCc1ccccc1)C2 (stereo unspecified) | 8.70
* CC(C)N1Cc2ccc(C(=O)N(C)CCC3CCNCC3)cc2CC(CC(=O)O)C1=O (stereo unspecified) | 8.70

# input I would be grateful if you could share the reported pKi for CN(CCC1CCNCC1)C(=O)c1ccc2c(c1)CC(CC(=O)O)C(=O)N(CCC1CCCCC1)C2 (stereo unspecified) .
# output 8.70
